Data provenance is ChEMBL document CHEMBL1961873.

experimental.system: Tyrosine-protein kinase Lck (Homo sapiens);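 note: reported Lck percent inhibition is a mean value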
details: at 1 µM
Known inhibition of a selection of compounds
Respond with the bare value in %.

Before answering, review these 6 worked examples.
- NC(=O)c1cccc(Nc2nccc(Nc3cccc(F)c3)n2)c1: 15
- Cc1ccc(O)cc1Nc1ccnc2ccc(S(C)(=O)=O)cc12: 97.1
- CCCN1CCCC(c2ccc(Nc3nc(Nc4cc(F)ccc4C(N)=O)c4cc[nH]c4n3)c(OC)c2)C1 (centres undefined): 6.22
- Nc1ccc(C#Cc2cncnc2Nc2ccc(OCc3cccc(F)c3)c(Cl)c2)cc1: 4.92
- Cc1ccc2c(c1)/C(=N/Nc1ccc(S(N)(=O)=O)cc1)C(=O)N2: 3.66
- CN(C)c1cc2c(Nc3ccc4c(cnn4Cc4ccccc4)c3)ncnc2cn1: 22.6

Data request, read-out inhibition, for "[O-][S+]1CCN(Cc2ccc(-c3ccc4ncnc(Nc5ccc(OCc6ccccc6)c(Cl)c5)c4c3)o2)CC1"
5.8

Data request, read-out inhibition, for "NS(=O)(=O)c1ccc(Nc2cc(-c3cccc(O)c3)n[nH]2)cc1"
4.8

Data request, read-out inhibition, for "C[C@@H](Oc1cc(-n2cnc3ccc(OC[C@@H](O)CO)cc32)sc1C(N)=O)c1ccccc1Cl"
6.12

Data request, read-out inhibition, for "Nc1nccc(-c2c(-c3ccc(F)cc3)nn3cc(C(F)(F)F)ccc23)n1"
4.27

Data request, read-out inhibition, for "COc1cc(/C=N/Nc2ncnc3c2cnn3C(C)C)ccc1O"
52.8

Data request, read-out inhibition, for "O=C(Nc1ccc(Oc2ccc3[nH]c(NC(=O)c4ccco4)nc3c2)cc1)Nc1cc(C(F)(F)F)ccc1F"
38.8

Data request, read-out inhibition, for "NS(=O)(=O)c1cccc(Nc2cc(-c3ccc(F)cc3)n[nH]2)c1"
6.1

Data request, read-out inhibition, for "Cc1ccc2c(-c3ccnc(Nc4ccc5c(c4)OCCO5)n3)c(-c3ccc(C(F)(F)F)cc3)nn2n1"
8.08

* * *

experimental.system: Serine/threonine-protein kinase TBK1 (Homo sapiens) (UniProt Q9UHD2);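 note: values are the mean TBK1 inhibition, taken from the GSK PKIS screening data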
Sequence (Q9UHD2 whole entry): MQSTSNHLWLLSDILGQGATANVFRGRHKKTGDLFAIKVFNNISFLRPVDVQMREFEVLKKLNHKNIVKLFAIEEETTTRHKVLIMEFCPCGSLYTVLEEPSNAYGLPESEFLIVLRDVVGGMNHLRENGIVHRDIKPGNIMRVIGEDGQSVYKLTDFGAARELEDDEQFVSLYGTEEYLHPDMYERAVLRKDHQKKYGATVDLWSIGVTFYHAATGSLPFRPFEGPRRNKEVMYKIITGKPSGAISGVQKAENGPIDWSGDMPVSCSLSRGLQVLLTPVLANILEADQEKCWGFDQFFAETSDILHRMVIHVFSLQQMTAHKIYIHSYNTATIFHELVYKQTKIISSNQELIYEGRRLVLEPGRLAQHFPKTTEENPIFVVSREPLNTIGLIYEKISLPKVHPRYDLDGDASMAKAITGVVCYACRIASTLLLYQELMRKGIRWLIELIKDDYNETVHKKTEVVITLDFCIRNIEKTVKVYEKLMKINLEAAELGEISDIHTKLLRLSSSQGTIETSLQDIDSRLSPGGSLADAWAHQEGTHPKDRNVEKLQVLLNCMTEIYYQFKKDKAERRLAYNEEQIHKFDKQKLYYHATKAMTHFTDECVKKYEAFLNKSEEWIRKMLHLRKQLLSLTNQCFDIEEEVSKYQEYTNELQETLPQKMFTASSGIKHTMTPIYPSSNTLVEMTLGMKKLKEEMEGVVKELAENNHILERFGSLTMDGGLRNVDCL
details: at 0.1 µM
observation.type: inhibition
Please answer in the form of a number followed by its unit of measurement.

Before answering, review these 6 worked examples.
- CN(C)C(=O)O[C@@H]1CN[C@@H](C#Cc2cc3ncnc(Nc4ccc(OCc5cccc(F)c5)c(Cl)c4)c3s2)C1: 4.03%
- NS(=O)(=O)c1cccc(-c2cc3ccncc3cc2OCc2ccccc2)c1: 2.28%
- Cc1cc(Cl)cc2c1NC(=O)C2=NNc1ccc(S(N)(=O)=O)cc1: 1.17%
- CCn1c(-c2nonc2N)nc2c(C#CC(C)(C)O)nc(OCCNC)cc21: 3.53%
- NC(=O)c1sc(-n2cnc3ccccc32)cc1OCc1ccccc1Br: 0.38%
- Nc1ccc(C#Cc2cncnc2Nc2ccc(OCc3cccc(F)c3)c(Cl)c2)cc1: 2.5%

Data request, read-out inhibition, for "COC(=O)c1cncc(/C=C/c2c(C)cc(O)cc2C)c1"
1.26%

Data request, read-out inhibition, for "NS(=O)(=O)c1ccc(Nc2cc(-c3cccc(O)c3)n[nH]2)cc1"
4.83%

Data request, read-out inhibition, for "COc1cccc(-n2ncc3c(N/N=C/c4ccc(C)cc4)ncnc32)c1"
2.64%

Data request, read-out inhibition, for "ON=C1CCc2cc(-c3nc(C4CCNCC4)[nH]c3-c3ccncc3)ccc21"
0.4%

Data request, read-out inhibition, for "COc1cccc(-n2nc(C)c3c(N/N=C(\C)c4ccncc4)ncnc32)c1"
-0.16%

Data request, read-out inhibition, for "O=C1Nc2ccccc2/C1=C/Nc1ccc2[nH]c(=O)[nH]c2c1"
8.2%

Data request, read-out inhibition, for "C[C@@H](Oc1cc(-n2cnc3ccc(OC[C@@H](O)CO)cc32)sc1C(N)=O)c1ccccc1Cl"
0.21%

Data request, read-out inhibition, for "COC(=O)c1ccc2c(c1)C(=Cc1cc(Br)c(O)c(Br)c1)C(=O)N2"
1.23%

Data request, read-out inhibition, for "Cc1cc(O)cc(C)c1/C=C/c1cncc(C(=O)N(C)C)c1"
1.36%

Data request, read-out inhibition, for "COc1ccc2ncnc(Nc3ccc(OCc4ccccc4)cc3)c2c1"
1.67%

Data request, read-out inhibition, for "Cc1ccc(NC(=O)CC2CC2)cc1-c1ccc(C(=O)NCC2CC2)cc1"
2.81%

Data request, read-out inhibition, for "CCS(=O)(=O)c1ccc(OC)c(Nc2ncc(-c3cccc(OC)c3)o2)c1"
0.69%

* * *

Known inhibition of a selection of compounds
experimental.system: Interleukin-1 receptor-associated kinase 4 (Homo sapiens)
details: at 1 µM
Respond with the bare value in %.

Before answering, review these 4 worked examples.
- CCOc1nccc2c1nc(-c1nonc1N)n2CC: 1.89
- [O-][S+]1CCN(Cc2ccc(-c3ccc4ncnc(Nc5ccc(OCc6ccccc6)c(Cl)c5)c4c3)o2)CC1: 0.82
- COC(=O)c1ccc2c(c1)C(=Cc1cc(Br)c(O)c(Br)c1)C(=O)N2: 2.79
- CC(C)c1ccc2c(c1)NC(=O)/C2=N/Nc1ccc(S(N)(=O)=O)cc1: 0.49

Could you now look at the following compound, please?
Write down the reported inhibition of "CC(C)c1ccc(Nc2nccc(-c3cnn4ncccc34)n2)cc1" , test system: Interleukin-1 receptor-associated kinase 4 (Homo sapiens).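 Note: mean inhibition values, from the GSK PKIS dataset.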
1.84

* * *

experimental.system: Cytoplasmic tyrosine-protein kinase BMX (Homo sapiens)
Sequence (whole entry): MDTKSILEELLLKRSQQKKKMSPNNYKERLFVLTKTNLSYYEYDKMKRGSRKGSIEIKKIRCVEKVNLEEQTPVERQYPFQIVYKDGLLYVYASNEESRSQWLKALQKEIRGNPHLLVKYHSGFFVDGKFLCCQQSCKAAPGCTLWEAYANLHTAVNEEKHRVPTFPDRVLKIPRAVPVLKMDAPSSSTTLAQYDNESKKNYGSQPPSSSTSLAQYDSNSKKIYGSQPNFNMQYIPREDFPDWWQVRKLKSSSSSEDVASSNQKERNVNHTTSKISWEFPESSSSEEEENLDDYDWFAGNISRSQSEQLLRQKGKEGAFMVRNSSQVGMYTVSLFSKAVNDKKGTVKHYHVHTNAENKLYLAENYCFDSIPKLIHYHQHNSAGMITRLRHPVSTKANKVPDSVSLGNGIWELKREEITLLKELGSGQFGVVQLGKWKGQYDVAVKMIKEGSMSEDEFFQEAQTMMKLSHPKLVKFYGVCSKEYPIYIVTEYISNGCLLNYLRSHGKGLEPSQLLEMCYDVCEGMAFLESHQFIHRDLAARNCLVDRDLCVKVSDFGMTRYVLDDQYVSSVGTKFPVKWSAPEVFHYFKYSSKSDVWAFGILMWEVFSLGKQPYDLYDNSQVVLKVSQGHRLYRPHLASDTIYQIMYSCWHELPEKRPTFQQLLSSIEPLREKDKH
details: at 0.1 µM
Description: GSK_PKIS: BMX mean inhibition at 0.1 uM [Nanosyn]
observation.type: inhibition
Please answer in the form of a number followed by its unit of measurement.

• CN(C)C(=O)O[C@@H]1CN[C@@H](C#Cc2cc3ncnc(Nc4ccc(OCc5cccc(F)c5)c(Cl)c4)c3s2)C1 = 1.11%
• C[C@@H](Oc1cc(-n2cnc3ccc(OCC4CCN(C)CC4)cc32)sc1C(N)=O)c1ccccc1C(F)(F)F = -1.33%
• c1ccc(Nc2ncc(-c3ccccc3)o2)cc1 = 1.56%
• Nc1nccc(-c2c(-c3ccc(F)cc3)ncn2CCCN2CCOCC2)n1 = 3.6%
• CN1CCN(C(=O)c2ccc(NC(=O)Nc3ccc(N(C)c4ccnc(Nc5ccc(CS(C)(=O)=O)cc5)n4)cc3)cc2)CC1 = 19.1%

Could you now look at the following compound, please?
Data request, read-out inhibition, for "Cc1ccc(Nc2ccnc(Nc3cccc(C(N)=O)c3)n2)cc1O"
14.1%

* * *

Known inhibition of a selection of compounds
experimental.system: Serine/threonine-protein kinase pim-2 (Homo sapiens);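 note: each value is a mean of the inhibition measurements against the kinase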
details: at 1 µM
Please answer in the form of a number followed by its unit of measurement.

- NS(=O)(=O)c1ccc(Nc2cc(-c3cccc(O)c3)n[nH]2)cc1: 1.32%
- COc1cc2ncn(-c3cc(OCc4ccccc4S(C)(=O)=O)c(C#N)s3)c2cc1OC: 1.39%
- O=C(Nc1ccc(Oc2ccc3[nH]c(NC(=O)c4ccco4)nc3c2)cc1)Nc1cc(C(F)(F)F)ccc1F: -3.75%
- NC(=O)c1sc(-n2cnc3ccccc32)cc1OCc1ccccc1Br: 0.78%
- CCn1c(-c2nonc2N)nc2ccc(F)cc21: 0.34%

Data request, read-out inhibition, for "CCS(=O)(=O)c1ccc(OC)c(Nc2ncc(-c3cccc(OC)c3)o2)c1"
0.96%

Data request, read-out inhibition, for "COc1cccc(-n2ncc3c(N/N=C/c4ccc(C)cc4)ncnc32)c1"
0.75%

* * *

Known inhibition of a selection of molecules
experimental.system: Dual specificity protein kinase CLK2 (Homo sapiens)
details: at 1 µM
Respond with the bare value in %.

* Cc1ccc(C(=O)NC2CC2)cc1-c1ccc2[nH]ncc2c1 | 0.36
* CCOc1nccc2c1nc(-c1nonc1N)n2CC | 1.91
* CCn1c(-c2nonc2N)nc2ccc(F)cc21 | 0.59
* N#Cc1c(NC(=O)c2ccccc2F)sc2c1CCCC2 | -0.15
* COc1cc(Nc2nccc(-c3cnn4ncccc34)n2)cc(OC)c1 | 99.9
* Nc1nccc(-c2c(-c3ccc(F)cc3)ncn2CCCN2CCOCC2)n1 | 0.74

Could you now look at the following molecule, please?
Write down the reported inhibition of "CCS(=O)(=O)c1ccc(OC)c(Nc2ncc(-c3cccc(OC)c3)o2)c1" , test system: Dual specificity protein kinase CLK2 (Homo sapiens).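 Note: reported values are mean percent inhibition of CLK2.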
86
